For each entry below, report its pIC50 value.
Biological target: AAK1 (Homo sapiens)
Construct: NP_055726.2
Sequence (Q2M2I8 1-863 isoform Q2M2I8-2): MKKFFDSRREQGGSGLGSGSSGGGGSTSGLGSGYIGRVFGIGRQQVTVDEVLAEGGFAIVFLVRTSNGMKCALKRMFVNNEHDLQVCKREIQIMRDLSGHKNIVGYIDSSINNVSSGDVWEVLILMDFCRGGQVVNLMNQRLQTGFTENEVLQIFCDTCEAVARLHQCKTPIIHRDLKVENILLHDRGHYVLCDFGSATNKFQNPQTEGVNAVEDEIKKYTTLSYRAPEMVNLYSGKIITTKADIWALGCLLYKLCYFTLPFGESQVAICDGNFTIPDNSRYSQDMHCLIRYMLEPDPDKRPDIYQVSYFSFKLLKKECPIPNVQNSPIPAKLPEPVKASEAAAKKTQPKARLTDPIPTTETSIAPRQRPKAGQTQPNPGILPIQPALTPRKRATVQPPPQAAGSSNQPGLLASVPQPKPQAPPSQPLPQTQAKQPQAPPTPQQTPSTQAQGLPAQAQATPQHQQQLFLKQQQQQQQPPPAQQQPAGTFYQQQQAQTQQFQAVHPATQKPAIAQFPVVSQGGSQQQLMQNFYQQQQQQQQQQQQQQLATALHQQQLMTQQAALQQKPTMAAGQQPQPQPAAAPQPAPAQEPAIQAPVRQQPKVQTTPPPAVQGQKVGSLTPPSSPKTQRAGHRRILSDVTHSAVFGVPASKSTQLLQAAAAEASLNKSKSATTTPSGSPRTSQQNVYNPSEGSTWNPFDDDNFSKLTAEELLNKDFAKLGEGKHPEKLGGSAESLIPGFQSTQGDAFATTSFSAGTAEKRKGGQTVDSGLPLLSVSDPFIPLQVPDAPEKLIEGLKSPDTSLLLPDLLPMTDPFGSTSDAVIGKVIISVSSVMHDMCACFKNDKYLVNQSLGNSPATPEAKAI
Assay: P81 filter plate assay
Format: biochemical
Conditions: full-length human AAK1, Mu2 substrate, 33P-ATP
pIC50: −log10 of the molar value.

INSERT INTO measurements (structure_notation, tested_system, reported) VALUES
  ('CCO/C=C/c1cnn2ccc(N3CCN(C(=O)OC(C)C)CC3)nc12', 'AAK1 (Homo sapiens)', '≥ 7.00');

// input: 5 molecules below; output: pIC50 for each
1. COc1ncccc1-c1cnn2ccc(N3CCN(C(=O)[C@@H]4CCCN4)CC3)nc12
2. CC(C)OC(=O)N1CCN(c2ccn3ncc(C(F)(F)F)c3n2)CC1
3. COc1ncc(-c2cnn3ccc(N4CCN(C(=O)OC(C)C)CC4)nc23)c(OC)n1
4. COc1ccc(F)cc1-c1cnn2ccc(N3CC[C@H](N(C)C(=O)OC(C)C)C3)nc12
5. Cc1ncccc1-c1cnn2ccc(N3CCN(C(=O)OC(C)C)CC3)nc12

["≥ 8.00", "≥ 6.00", "≥ 8.00", "≥ 8.00", "≥ 7.00"]
